The origin of these recorded values is PubChem BioAssay (NCI).

- Test system: MOLT-4 leukemia
- test: NCI-60 one-dose screen, 48 h (100 = growth as untreated, 0 = no growth, -100 = all killed)
- condition info: 10 µM
About 83,000 compounds went through this panel and 20% of them were active in at least one assay; those are over-represented in the sample as a whole.
observed property: growth (%)
Use % as the unit, but write only the number.

Nc1ccc([N+](=O)[O-])c2c1Oc1ccccc1O2	79.7
c1ccc2nc(OCCN3CC3)ccc2c1	34
O=S(=O)(Cl)c1ccccc1 (tested in a mixture with another compound)	93

For CCCCCN(CCCCC)CC(O)c1ccc(C)c(Cl)c1 (stereo not drawn) on MOLT-4 leukemia, measured growth was 110

# growth measured on MOLT-4 leukemia for item Nc1ncnc2c1c(C(=O)NO)cn2C1OC(CO)C(O)C1O (stereo not drawn) = -32.9

Tested on MOLT-4 leukemia, the item `CNC(=O)Oc1ccccc1-c1ccccc1` showed growth equal to 96

Record `NS(=O)(=O)c1nc[nH]c1[N+](=O)[O-]` / MOLT-4 leukemia, growth recorded as 102

// returns growth for CCCCCCCCCCCCOc1ccc(C(=O)Oc2ccc(CSP3(=O)OCC4OC(n5cnc6c(N)ncnc65)C(F)C4OP(=O)(O)OCC4OC(n5ccc(=O)[nH]c5=O)C(F)C4O3)cc2)cc1 (stereo not drawn) with MOLT-4 leukemia; value = 68.3

Fill in: MOLT-4 leukemia growth for `CC(=O)O[C@H]1CC[C@H]2[C@@H]3CC[C@H]4CC=C(C)C[C@]4(C)[C@H]3CC[C@]12C` = 94

Log: MOLT-4 leukemia, compound CC(=O)O[C@H]1CCC2C3CCC4=C/C(=N/O)CCC4(C)C3CCC21C (stereo partly drawn) , growth = 72.6

Item C[C@]12CC[C@H](OC3OC(O)C(O)C(O)C3O)C=C1CCC1C2CC[C@]2(C)[C@@H](c3ccc(=O)oc3)CC[C@]12O (stereo partly drawn) was tested on MOLT-4 leukemia; the reported growth is -39.3

###

- Tested on: CAKI-1 renal
- test: NCI-60 one-dose screen, 48 h (100 = growth as untreated, 0 = no growth, -100 = all killed)
- condition info: 10 µM unless noted
The panel holds about 83,000 compounds, 20% with a hit somewhere; the sample as a whole holds those more often.
Lab note: cut-off is 70%. Strictly less in growth is satisfied. Exactly 70% or more is not satisfied.

// below: answered molecules
CNC(=O)Oc1cccc(OC)c1	not satisfied
COC(=O)C(=[N+]=[N-])C(=O)OC	not satisfied
NC(Cc1ccc(O)cc1)C(=O)N/N=C/c1ccc(N(CCCl)CCCl)cc1 (configuration not stated)	satisfied

Is growth of `CC(/C=N/N=C(N)N)=N/N=C(N)N` strictly below 70%?
not satisfied

Record `O=C(Nc1ccc(S(=O)(=O)F)cc1)Oc1ccccc1` : is its growth strictly below 70%?
not satisfied

Criterion: growth strictly below 70%. Is it met by `C[C@]12CCc3sc(-c4ccc(Cl)cc4)nc3C1=CC[C@@H]1[C@@H]2CC[C@]2(C)C(=O)CC[C@@H]12` ?
satisfied

Just wondering, is growth of `Nc1c(Br)cc2c3c(cccc13)-c1ccccc1-2` below 70%?
satisfied

###

- System: HL-60(TB) leukemia
- test: NCI-60 one-dose screen, 48 h
- condition info: 10 µM unless noted
The panel holds about 83,000 compounds, 20% with a hit somewhere; the sample as a whole holds those more often. The source made the active and inactive calls. How the source made its calls: active means growth percent below 10; inactive means the rest.
// allowed return values: T (active), F (inactive)

Worked cases, answers included:
O=C(CSc1nnc(Nc2ccccc2)s1)NCCc1ccc(F)cc1	F
O=C(/C=C/c1ccccc1)c1c[nH]c2ccccc2c1=O	T
Fc1cccc(-c2nc(-c3c[nH]c4ncccc34)cs2)c1	F
N#Cc1c(Nc2ccc(F)cc2)n[nH]c1-c1cccs1	F
CCN(CC)CCCC(C)Nc1c2ccc(Cl)cc2nc2ccc(OC)cc12 (configuration not stated)	F
CC1=C[C@H]2c3c(c(O)c(O)c4oc5ccccc5c(=O)c34)[C@H](c3cc(O)c(O)c4oc5ccccc5c(=O)c34)[C@H]2C(C)(C)C1	T

Dear colleague, could you share the recorded outcome for `O=C(CCc1nnc(SCc2ccccc2)s1)c1nc2ccccc2[nH]1` when you have a moment?
F
